System: NCI-H522
assay comment: NCI tumour cell line growth inhibition, 48 h
Activity calls are given as the source filed them. Rule as the data show it: active = GI50 up to about 1.1 µM and inactive = higher.
Classes used: class 1 = active, class 0 = inactive

{"molecule": "COc1cc(C(=O)OCCn2[nH]c(-c3ccc(Cl)cc3)nc2=S)cc(OC)c1OC", "qualitative label": "class 0"}
{"molecule": "C=CSCCC(N)C(=O)O (stereo not given)", "qualitative label": "class 0"}
{"molecule": "CS(=O)(=O)OCCN1CCN(C(=O)c2cccc3c(Nc4ccc(S(N)(=O)=O)cc4)c4ccccc4nc23)CC1", "qualitative label": "class 0"}
{"molecule": "CC(C)C(C)C(O)C(O)C(C)C1CCC2C3COC(=O)C4CC(O)C(O)CC4(C)C3CCC12C (stereo not given)", "qualitative label": "class 0"}
{"molecule": "O=c1cc(-c2ccc(O)cc2)oc2cc(O)cc(O)c12 [APIGENIN]", "qualitative label": "class 0"}
{"molecule": "Cc1ccc(S(=O)(=O)NC(=O)NNc2ccc(F)cc2)cc1", "qualitative label": "class 0"}
{"molecule": "CCOC(=O)C1=C(C#N)S(=O)(=O)c2c(oc(C)c2C)N1", "qualitative label": "class 0"}
{"molecule": "CC12CC(=O)OC(Cc3ccccc31)O2 (stereo not given)", "qualitative label": "class 0"}
{"molecule": "Cc1ccc(/N=C/c2ccc3c(c2)OCO3)cc1C", "qualitative label": "class 0"}
{"molecule": "[O-][n+]1onc2c1-c1nonc1CC2", "qualitative label": "class 0"}
{"molecule": "Clc1cccc(/C=N/C23CC4CC(CC(C4)C2)C3)c1Cl", "qualitative label": "class 0"}
{"molecule": "COC(=O)CC1C2CC3C(C2=O)C13 (stereo not given)", "qualitative label": "class 0"}
{"molecule": "O=C1CCCCCC1CC(Sc1ccccc1)Sc1ccccc1 (stereo not given)", "qualitative label": "class 0"}
{"molecule": "O=c1[nH]c(=O)n(COC(CO)CO)cc1-c1ccccc1", "qualitative label": "class 0"}
{"molecule": "CC12CCC(=O)N1c1cnccc1N2 (stereo not given)", "qualitative label": "class 0"}
{"molecule": "O=C(Nc1nnc(S)[nH]1)C(=O)C(C(=O)c1ccc2ccccc2c1)C1OC(=O)c2ccccc21 (stereo not given)", "qualitative label": "class 0"}
{"molecule": "c1cncc(CSc2ncnc3[nH]cnc23)c1", "qualitative label": "class 0"}
{"molecule": "C=C(C)[C@H]1C=C[C@@H](OC(=O)c2cccnc2)[C@@]23CO[C@@](C)([C@H](OC(=O)c4cccnc4)[C@@]4(OC(C)=O)C[C@H](C)[C@H](OCCC)[C@@H]4[C@H]2OC(C)=O)[C@H]13", "qualitative label": "class 0"}
{"molecule": "C/C=C/[C@@H]1O[C@H](CC#C[Si](C)(C)C)[C@@]2(C=O)C(C)=CC[C@H](C(C)C)[C@@H]12", "qualitative label": "class 0"}
{"molecule": "COC(=O)/C=C(\\S/C(=N\\n1cc(C(=O)OC)c(C(=O)OC)c1-c1ccc(C)cc1)c1ccc(C)cc1)C(=O)OC", "qualitative label": "class 0"}
{"molecule": "CS(=O)(=O)OCCCOS(C)(=O)=O", "qualitative label": "class 0"}
{"molecule": "Cn1cc2ccccc2c1-c1nc(F)nc(Oc2ccc3c(c2)CC[C@@H]2C3CC[C@@]3(C)C2CC[C@@H]3O)n1 (stereo not given in full)", "qualitative label": "class 0"}
{"molecule": "CC(=O)OC/C=C(\\C)CCC(Br)C(C)(C)Br (stereo not given)", "qualitative label": "class 0"}
{"molecule": "COc1ccc(-c2cn3ccsc3n2)cc1", "qualitative label": "class 0"}
{"molecule": "CC(C)OP(=O)(OC(C)C)/C(N)=N/Nc1ccc([N+](=O)[O-])cc1", "qualitative label": "class 0"}
{"molecule": "CN1C(c2ccccc2)=CC(=O)C(O)=C(c2ccccc2)S1(=O)=O", "qualitative label": "class 0"}
{"molecule": "Nc1ccc2c(O)cc(O)nc2n1", "qualitative label": "class 0"}
{"molecule": "CC1(C)[C@@H]2C[C@H]1[C@@H](Cc1cccc(C[C@H]3c4cc(-c5ccccn5)ncc4[C@H]4C[C@@H]3C4(C)C)c1)c1cc(-c3ccccn3)ncc12", "qualitative label": "class 0"}
{"molecule": "CN1C(=O)C(C#N)C2C[C@@]1(C)Oc1ccccc12 (stereo not given in full)", "qualitative label": "class 0"}
{"molecule": "COc1ccc(C(=O)c2ccc(-n3c4ccccc4c4ccc5c(c43)C(=O)C=CC5=O)cc2)cc1", "qualitative label": "class 1"}
{"molecule": "COc1cc2c(c(OC)c1OC)CCNC2C1=C(O)COC1=O (stereo not given)", "qualitative label": "class 0"}
{"molecule": "CC(C(=O)ON1C(=O)CCC1=O)c1ccc(C(=O)c2ccccc2)s1 (stereo not given)", "qualitative label": "class 0"}
{"molecule": "CCN(CC)CCC1CCCCN1CC(=O)N1c2ccccc2NC(=O)c2ccccc21 (stereo not given)", "qualitative label": "class 0"}
{"molecule": "N#Cc1c(N)c2c(c(-c3ccccc3)c1-c1ccccc1)C(=O)N(NC(=S)Nc1ccccc1)C2=O", "qualitative label": "class 0"}
{"molecule": "CCOC(=O)CCc1c(C)c2c(O)cc(O)cc2oc1=O", "qualitative label": "class 0"}
